Please go through the items and note down their TGI.
# Tested on: MCF7 breast
# assay protocol: NCI tumour cell line growth inhibition, 48 h

Could I get TGI for every one of these entries?
1. Nc1nc2[nH]c(=O)cnc2c(=O)[nH]1
2. Cc1ccc(C)c2c1C/C(=C\c1ccccc1C(=O)O)C2=O
3. CCNCCCn1c2c(c3ccc(F)cc3c1=O)C(=O)c1cc(OC)cnc1-2

Found:
> 125 µM
> 100 µM
2.75 µM

----------
# Test system: NCI-H23 lung
# assay protocol: NCI tumour cell line growth inhibition, 48 h; in the data active = GI50 below about 0.43 µM; inactive = the rest
Lab note: assign the record to one of 1 = active, -1 = inactive

Examples from the recorded data:
# compound, qualitative label
measured = [
    ("C=C1C(=O)O[C@H]2[C@H]1CC/C(CNC(=O)c1cccc3ccccc13)=C\\CC[C@@]1(C)O[C@@H]21", -1),
    ("COc1ccc(-c2c(-c3cc(OC)c(OC)c(OC)c3)nc3sc(C4CC4)nn23)cc1OC", -1),
]

Lookup: Assay result, entry C=C1CC2(OC1=O)C(=O)N(C)c1ccc(I)cc12 (centres undefined) — outcome?
Found: -1

Lookup: Assay result, entry O=[N+]([O-])c1ccc(C(Br)c2ccc([N+](=O)[O-])cc2)cc1 — outcome?
Found: -1

Lookup: Assay result, entry O=C(Nc1ccc(-n2cc(-c3ccncc3)c(-c3ccc(O)c(Cl)c3)n2)cc1)c1cc(C(F)(F)F)cc(C(F)(F)F)c1 — outcome?
Found: -1

Lookup: Assay result, entry CN(C)c1ccc(Nc2ncnc3ccccc23)cc1 — outcome?
Found: -1

Lookup: Assay result, entry COc1cc(CN[C@H]2CCc3cc(OC)c(OC)c(OC)c3-c3ccc(SC)c(=O)cc32)cc(OC)c1 — outcome?
Found: 1

Lookup: Assay result, entry COc1cc(/C=C/C(=O)c2ccc(Nc3nc(Nc4ccc(F)cc4)nc(Nc4ccc(Cl)cc4)n3)cc2)cc(OC)c1OC — outcome?
Found: -1

Lookup: Assay result, entry O=C(Nc1cccc(-n2ccc3c(NC(=O)c4ccccc4)nccc32)c1)Nc1ccc(Cl)c(C(F)(F)F)c1 — outcome?
Found: -1
